Collected pIC50 values appear next to each entry.
measuredTarget: Gonadotropin-releasing hormone receptor (Homo sapiens, UniProt P30968)
Sequence (P30968 whole entry): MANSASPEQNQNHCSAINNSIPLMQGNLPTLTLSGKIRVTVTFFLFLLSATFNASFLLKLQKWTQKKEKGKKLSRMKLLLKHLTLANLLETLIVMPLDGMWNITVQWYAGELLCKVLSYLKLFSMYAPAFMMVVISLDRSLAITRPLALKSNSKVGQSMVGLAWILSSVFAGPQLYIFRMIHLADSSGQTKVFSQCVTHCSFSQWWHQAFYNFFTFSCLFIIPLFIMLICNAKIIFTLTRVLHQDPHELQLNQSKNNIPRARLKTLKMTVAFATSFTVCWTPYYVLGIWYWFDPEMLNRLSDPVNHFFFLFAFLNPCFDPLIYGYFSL
assayMethodText: Antagonist activity against human GnRH receptor expressed in HEK293 cells co-transfected with pGL4-NFAT promoter AP1-luc assessed as inhibition of 20 nM GnRH-induced NFAT activation pre-incubated for 1 hr before GnRH stimulation and measured after 6 hrs by luciferase reporter gene assay
Type: cell-based
pIC50: −log10 of the molar value.

• Cc1c(N2CCN(Cc3cccc([N+](=O)[O-])c3)CC2)c(=O)n(C[C@H](N)c2ccccc2)c(=O)n1Cc1c(F)cccc1C(F)(F)F = 6.81 to 6.99

Quote pIC50 reported for Cc1c(N2CCN(Cc3cc(C(F)(F)F)co3)CC2)c(=O)n(C[C@H](N)c2ccccc2)c(=O)n1Cc1c(F)cccc1C(F)(F)F please.
< 6.52

Tell me pIC50 reported for Cc1c(N2CCN(Cc3cccnc3C(F)(F)F)CC2)c(=O)n(C[C@H](N)c2ccccc2)c(=O)n1Cc1c(F)cccc1C(F)(F)F
< 6.52
